EXPERIMENT: Apparent volume of distribution was obtained after intravenous administration of 2.5 mg/kg of drug in male Dawley rats
Type: ADME, organism-based
Parameters: dose 2.5 mg/kg, route intravenous
CONDITIONS USED: Sprague-Dawley, rat, in vivo, read-out: Vss
ENDPOINT LABEL: Vd (L/kg)

• Cn1cnc(S(=O)(=O)Nc2cccc([C@@H](c3c(O)c4c(oc3=O)CCCCCC4)C3CC3)c2)c1 = 0.2
• O=c1c2c(oc(O)c1[C@H](c1cccc(NS(=O)(=O)c3cccc4cccnc34)c1)C1CC1)CCCCCC2 = 0.15

* * *

EXPERIMENT: Total plasma clearance value was obtained after intravenous administration of 5.1 mg/kg of drug in male Dawley rats
Format: ADME, organism-based
Parameters: dose 5.1 mg/kg, route intravenous
CONDITIONS USED: Sprague-Dawley, rat
ENDPOINT LABEL: clearance (mL/min/kg)

- N#Cc1ccc(S(=O)(=O)Nc2cccc([C@@H](c3c(O)oc4c(c3=O)CCCCCC4)C3CC3)c2)cc1: 0.817
